# Measured target: human AR (androgen receptor) (Homo sapiens)
# Construct: expressed in transfected cells; host or cells: 293 cells (293-AR lysate)
# Sequence (P10275 1-920): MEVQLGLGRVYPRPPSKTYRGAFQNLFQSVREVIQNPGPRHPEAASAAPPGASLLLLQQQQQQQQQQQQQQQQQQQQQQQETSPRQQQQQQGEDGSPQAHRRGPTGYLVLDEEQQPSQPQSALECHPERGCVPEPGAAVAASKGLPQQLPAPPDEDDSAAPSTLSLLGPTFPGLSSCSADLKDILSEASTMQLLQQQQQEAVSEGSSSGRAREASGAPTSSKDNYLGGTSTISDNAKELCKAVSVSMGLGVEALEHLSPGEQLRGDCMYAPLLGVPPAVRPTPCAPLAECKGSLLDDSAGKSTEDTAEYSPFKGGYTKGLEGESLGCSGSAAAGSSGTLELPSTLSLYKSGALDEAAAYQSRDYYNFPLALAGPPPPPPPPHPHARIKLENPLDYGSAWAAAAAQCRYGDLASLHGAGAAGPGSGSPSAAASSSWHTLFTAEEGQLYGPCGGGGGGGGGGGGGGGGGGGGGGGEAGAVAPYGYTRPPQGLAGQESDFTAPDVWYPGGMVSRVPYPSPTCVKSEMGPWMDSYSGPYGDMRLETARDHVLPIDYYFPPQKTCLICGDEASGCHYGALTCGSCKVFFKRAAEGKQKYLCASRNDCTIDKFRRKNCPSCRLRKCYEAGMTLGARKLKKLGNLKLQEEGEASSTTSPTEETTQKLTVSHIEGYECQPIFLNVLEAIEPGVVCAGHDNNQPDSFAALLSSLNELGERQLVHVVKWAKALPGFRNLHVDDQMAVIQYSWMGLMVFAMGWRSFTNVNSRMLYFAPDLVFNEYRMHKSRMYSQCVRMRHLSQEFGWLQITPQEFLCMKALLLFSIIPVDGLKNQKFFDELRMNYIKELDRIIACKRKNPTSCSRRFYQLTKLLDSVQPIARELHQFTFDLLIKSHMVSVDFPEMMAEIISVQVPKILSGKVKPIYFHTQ
# Method: Steroid hormone nuclear receptor binding assay, AR binding
Outcome measure: pKi
Expect pKi as a plain number equal to -log10 of the molar concentration.

Take a look at these entries with their results.
CC(C)C(=O)NC1CCc2c(c3cc(C(N)=O)ccc3n2Cc2cccc(F)c2)C1 (centres unmarked)
7.41
COc1ccc2c(c1)c1c(n2Cc2cccc(Cl)c2)CCC(NC(=O)C(C)C)C1 (centres unmarked)
8.00
CC(C)C(=O)N[C@@H]1CCc2c(c3cc(C#N)ccc3n2Cc2cnccn2)C1
7.70
CC(C)C(=O)NC1CCc2c(c3cc(Cl)ccc3n2Cc2ccccc2O)C1 (centres unmarked)
8.28
CC(C)C(=O)NC1CCc2c(c3cc(Br)cc(F)c3n2Cc2cccc(F)c2)C1 (centres unmarked)
8.15
COc1ccc2c(c1)c1c(n2Cc2cccnc2)CCC(NC(=O)C(C)C)C1 (centres unmarked)
6.13
COc1ccccc1Cn1c2c(c3cc(Cl)ccc31)CC(NC(=O)C(C)C)CC2 (centres unmarked)
7.42

# ---- query compound ----
Qu. Fill blank: measured pKi of the compound CC(C)C(=O)NC1CCc2c(c3ccccc3n2Cc2ccccc2)C1 (centres unmarked) is ____.
Ans. 7.75

---

# Measured target: human AR (androgen receptor) (Homo sapiens, UniProt P10275)
# Construct: expressed in transfected cells; host or cells: 293 cells (293-AR lysate)
# Method: Steroid hormone nuclear receptor binding assay, AR binding
# Setup conditions: average of n trials; read-out: AR binding Ki
Outcome measure: Ki (nM)
# unit: nM | format: bare number

CC(C)C(=O)NC1CCc2c(c3cc(C#N)ccc3n2Cc2ccsc2)C1 (stereo not shown)
5.2
CCC(=O)NC1CCc2c(c3cc(OC)ccc3n2Cc2ccccc2)C1 (stereo not shown)
6.9
CC(C)C(=O)N[C@@H]1CCc2c(c3cc(C#N)ccc3n2Cc2cccc(F)n2)C1
4.3

Qu. Fill blank: measured Ki of the compound CC(C)C(=O)NC1CCc2c(c3cc(Cl)ccc3n2Cc2ccc(O)cc2)C1 (stereo not shown) is ____.
Ans. 51.4

---

# Measured target: human androgen receptor (AR) (Homo sapiens)
# Construct: expressed in transfected cells; host or cells: mouse myoblast C2C12 cells, transiently co-transfected
# Sequence (P10275 1-920): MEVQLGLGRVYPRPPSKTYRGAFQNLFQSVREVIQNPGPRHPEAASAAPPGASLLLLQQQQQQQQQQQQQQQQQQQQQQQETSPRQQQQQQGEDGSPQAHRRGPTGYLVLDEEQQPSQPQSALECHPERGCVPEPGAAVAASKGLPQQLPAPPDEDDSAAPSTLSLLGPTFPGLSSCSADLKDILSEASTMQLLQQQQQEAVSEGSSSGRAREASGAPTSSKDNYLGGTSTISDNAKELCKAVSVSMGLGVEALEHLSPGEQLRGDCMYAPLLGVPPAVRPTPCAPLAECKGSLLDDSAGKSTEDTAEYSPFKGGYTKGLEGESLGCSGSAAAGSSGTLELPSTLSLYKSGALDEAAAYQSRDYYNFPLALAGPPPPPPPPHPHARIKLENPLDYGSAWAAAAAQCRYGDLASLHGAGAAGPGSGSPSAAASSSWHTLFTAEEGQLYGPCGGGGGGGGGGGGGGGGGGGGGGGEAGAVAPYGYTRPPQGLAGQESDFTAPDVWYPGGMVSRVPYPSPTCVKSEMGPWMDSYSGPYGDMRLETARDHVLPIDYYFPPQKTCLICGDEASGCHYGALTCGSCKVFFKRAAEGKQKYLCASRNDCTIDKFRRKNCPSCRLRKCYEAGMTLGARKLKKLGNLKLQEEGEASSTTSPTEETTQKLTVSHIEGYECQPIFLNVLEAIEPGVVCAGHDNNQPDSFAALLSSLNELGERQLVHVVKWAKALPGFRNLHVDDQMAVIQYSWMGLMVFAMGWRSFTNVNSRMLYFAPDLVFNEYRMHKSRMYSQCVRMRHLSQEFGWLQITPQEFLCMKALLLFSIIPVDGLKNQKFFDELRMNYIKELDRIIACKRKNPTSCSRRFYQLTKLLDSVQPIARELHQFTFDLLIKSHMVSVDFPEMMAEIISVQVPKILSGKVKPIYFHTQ
# Method: C2C12 AR/ARE reporter assay
# Assay type: cell-based
# Setup conditions: C2C12, read-out: C2C12 % Efficacy
Outcome measure: Emax (%)
# unit: % | format: bare number

Take a look at these entries with their results.
CCC(=O)NC1CCc2c(c3cc(Br)ccc3n2Cc2cccc(F)c2)C1 (stereo not drawn)
80.2
CCCOc1ccc2c(c1)c1c(n2Cc2cccc(F)c2)CCC(NC(=O)C(C)C)C1 (stereo not drawn)
79.6

# ---- query molecule ----
Qu. Fill blank: measured Emax of the molecule `Cc1csc(Cn2c3c(c4cc(C#N)ccc42)C[C@H](NC(=O)C(C)C)CC3)n1` is ____.
Ans. 79.4
